Target under test: cynomolgus monkey IgG (cynoIgG)
Assay summary: direct ELISA, cynoIgG coated (hIgG4/CynoIgG screen), B-cell culture medium
Reported property: OD450 (OD450)
One number for each entry, in OD450.

>>> readout_value("rabbit anti-human IgG monoclonal antibody clone 19B1 (antibody, V domains shown) VH: QEQLVESGGGLVQPEGSLTLTCTASGFSFSDSYYMCWVRQAPGKGLEWIACIYGGTITNTYYASWAKGRFTISKTSSTTVTLQMTSLTAADTATYFCARDLGAAGDAYNLWGPGTLVTVSS VL: ASDMTQTPASVSEPVGGTVTIKCQASENIYSSLAWYQQKPGQPPKLLIYDASNLASGVPSRFSGSGSGTEFTLTISDLECADAATYYCQCTYRSSSSSYAFGGGTEVVVKG")
0.102
>>> readout_value("rabbit anti-human IgG monoclonal antibody clone 11G5 (antibody, V domains shown) VH: QSLEESGGDLVKPGASLTLTCTASGFSFSSSYYMCWVRQAPGKRLEWIACIYGGGLSNTYYAGWAKGRFTISKTSSTTVTLQMTSLTAADTATYFCARDATSGDYLNLWGPGTLVTVSS VL: AVVMTQTASPVSGAVGGTVTINCQASQSISASALSWYQQKPGQPPKLLIYAASTLESGVPSRFKGSGSGTQFTLTISGVQCDDAATYYCAYDGYRLSSADNIFGGGTEVVVKG")
0.159
>>> readout_value("rabbit anti-human IgG monoclonal antibody clone 9E6 (antibody, V domains shown) VH: QSLEESGGDLVKPGASLTLTCKASGFDFSSSYYMCWVRQAPGRLEWIACIYGGGLSNTYYAGWAKGRFTISKTSSTTVTLQMTSLTVADTATYFCARDAGTSGDYLNLWGPGTLVTVSS VL: AVVMTQTASPVSGAVGGTVTINCQASQSISSSYLSWYQQKPGQPPKLLIYGASTLASGVPSRFKGSGSGTQFTLTISGVQCDDAATYYCAYDAYRLSSPDNIFGGGTEVVVKG")
0.146
>>> readout_value("rabbit anti-human IgG monoclonal antibody clone 11F9 (antibody, V domains shown) VH: QQQLEESGGGLVQPEGSLTLTCIASGFSFSSSHWICWVRQAPGKGLEWIACMSTSSGSTYDANWAKGRFTISKTSSTTVTLQMTSLTAADTATYFCARDVGGSTTYFDLWGPGTLVTVSS VL: AYDMTQTPASVSEPVGGTVTIKCQASQSISNELSWYQQKPGQPPKLLIYRASTLASGVPSRFKGSGSGTQFTLTINGVECADAATYYCQQGYSISNVDNTFGGGTEVVVKG")
0.092
>>> readout_value("rabbit anti-human IgG monoclonal antibody clone 16F5 (antibody, V domains shown) VH: QQQLEESGGGLVKPGGTLTLTCKASGIDFSNYYYMCWVRQAPGKGLELIACIYTGSSGSTWYATWAKGRFTISKTSSTTVTLQMTSLTAADTATYFCARDRDVGSLYDSLDLWGQGTLVTVSP VL: AYDMTQTPASVEAAVGGTVTINCQASQSINNWLSWYQQKPGQRPKLLIYQASTLASGVSSRFKGSGSGTHFTLTISDLECADAATYYCQQGWSIDDIDNAFGGGTEVVVKG")
0.154

Let's switch to this binder now.
Name the recorded OD450 of the binder listed here: rabbit anti-human IgG monoclonal antibody clone 2C5 (antibody, V domains shown) VH: QEQLVESGGDLVKPGASLTLTCTASGFSFSSGYYMCWVRQAPGKGLEWIACIYGGALTNTYYATWAKGRFTISKTSSTTVTLQMTSLTAADTATYFCARDLGAAGDAYNLWGPGTLVTVSS VL: ASDMTQTPASVSAAVGGTVTIKCQASESIYSGLAWYQQKPGQPPKLLIFDASDLASGVPSRFKGSRSETEYTLTISDLECADAATYYCQCTDRNSITSYAFGGGTEVVVKG
0.124
